assay: gradient 5% acetonitrile 3 min, to 50% in 2 min, to 85% in 15 min, held 3 min, 100 µL/min; details: column: Zorbax Extend-C18 2.1 x 50 mm; eluents: water / acetonitrile, 0.1% formic acid
MEASURED ATTRIBUTE: RP-LC retention time (s)

>  <COMPOUND>
COc1ccc(S(=O)(=O)N2CCCC(C(=O)NCC3CCCO3)C2)cc1Cl (configuration not stated)

>  <VAL>
785

$$$$
>  <COMPOUND>
O=C(Cc1csc(NC(=O)c2ccco2)n1)Nc1nc2ccc([N+](=O)[O-])cc2s1

>  <VAL>
797

$$$$
>  <COMPOUND>
Cc1nc2cc(-c3noc(C(C)NC(=O)c4ccccc4)n3)ccc2o1 (configuration not stated)

>  <VAL>
811

$$$$
>  <COMPOUND>
CC(=O)c1ccc(NS(=O)(=O)N2CCC(C)CC2)cc1

>  <VAL>
780

$$$$
>  <COMPOUND>
COc1ccc(-c2noc(C3CC(=O)N(c4ccc5c(c4)OCO5)C3)n2)c(OC)c1 (configuration not stated)

>  <VAL>
816

$$$$
>  <COMPOUND>
Cc1ccc2nc(-c3cc(Br)ccc3F)c(Nc3ccccc3C)n2c1

>  <VAL>
793

$$$$
>  <COMPOUND>
Nc1sc(SCC(=O)Nc2ccc3c(c2)OCO3)nc1-c1ccccc1

>  <VAL>
797

$$$$

* * *

assay: gradient 5% acetonitrile 3 min, to 50% in 2 min, to 85% in 15 min, held 3 min, 100 µL/min; conditions: column: Zorbax Extend-C18 2.1 x 50 mm; eluents: water / acetonitrile, 0.1% formic acid
MEASURED ATTRIBUTE: RP-LC retention time (s)

>  <COMPOUND>
CCc1ccccc1NC(=O)CSc1nnc2c3cc(-c4ccc(C)cc4)nn3ccn12

>  <RP-LC retention time, s>
989

$$$$

a: CNC(=O)C1CN(S(=O)(=O)c2ccc(C)cc2)CC12CCCC2 (stereo not drawn)
b: CCOC(=O)C1CCN(c2cc3c(cc2NC(=O)CC2CCCCC2)n(C)c(=O)c(=O)n3C)CC1
Task for the reader: decide whether a or b has the larger RP-LC retention time. Mark your answer with the label of the selected entry.
b
(b: 981 s, a: 596 s)

* * *

assay: gradient 5% acetonitrile 3 min, to 50% in 2 min, to 85% in 15 min, held 3 min, 100 µL/min; settings: column: Zorbax Extend-C18 2.1 x 50 mm; eluents: water / acetonitrile, 0.1% formic acid
MEASURED ATTRIBUTE: RP-LC retention time (s)

>  <SMILES NOTATION>
CCc1ccc(NC(=O)N2CCc3nc(-c4ccccc4)ncc3C2)cc1

>  <UNIT INFO>
s

>  <VAL>
1010

$$$$

1: Cc1nn(-c2ccc(-c3ccccc3)nn2)c(C)c1S(=O)(=O)NCc1ccccc1
2: CN1CCN(S(=O)(=O)c2c[nH]c(=O)[nH]c2=O)CC1
Task for the reader: decide whether 1 or 2 has the larger RP-LC retention time. Mark your answer with the label of the selected entry.
1
(1: 1030 s, 2: 720 s)

* * *

experiment: gradient 5% acetonitrile 3 min, to 50% in 2 min, to 85% in 15 min, held 3 min, 100 µL/min; conditions: column: Zorbax Extend-C18 2.1 x 50 mm; eluents: water / acetonitrile, 0.1% formic acid
MEASURED ATTRIBUTE: RP-LC retention time (s)

>  <COMPOUND>
Cc1oc(-c2[nH]ncc2C(=O)N2CCOCC2)cc1S(=O)(=O)N1CCOCC1

>  <RP-LC retention time (s)>
595

$$$$

I: CCc1cc(=O)n(CC(=O)Nc2ccc(Br)cc2)c(N2CCOCC2)n1
II: COc1ccc(NC(=O)c2c(O)c3cccnc3n(-c3cccc(F)c3)c2=O)cc1Cl
Of I and II , which shows the smaller RP-LC retention time value? Mark your answer with the label of the selected entry.
I
(I: 829 s, II: 1280 s)

P: CS(=O)(=O)N1CCCc2ccc(NS(=O)(=O)c3ccc(Cl)s3)cc21
Q: COc1ccc(OCC(O)CN(CCO)CC(O)Cn2ccc3ccccc32)cc1 (stereo not given)
Task for the reader: decide whether P or Q has the larger RP-LC retention time. Mark your answer with the label of the selected entry.
P
(P: 849 s, Q: 591 s)

P: CCN1CCCC1CNC(=O)C1c2ccccc2C(=O)N(CCOC)C1c1ccc(F)cc1 (stereo not given)
Q: O=S(=O)(Cc1ccc(Cl)cc1)N1CCc2nc(-c3ccccc3)ncc2C1
Task for the reader: decide whether P or Q has the larger RP-LC retention time. Mark your answer with the label of the selected entry.
Q
(Q: 1090 s, P: 640 s)

A: O=C(CN1CCN(C(=O)Nc2ccc(Cl)cc2)CC1=O)N1CCN(C2CCCCC2)CC1
B: Cc1csc(-c2cc(S(=O)(=O)N3CCN(c4ccccc4)CC3)c(C)s2)n1
Task for the reader: decide whether A or B has the larger RP-LC retention time. Mark your answer with the label of the selected entry.
B
(B: 1160 s, A: 624 s)

* * *

test: gradient 5% acetonitrile 3 min, to 50% in 2 min, to 85% in 15 min, held 3 min, 100 µL/min; conditions: column: Zorbax Extend-C18 2.1 x 50 mm; eluents: water / acetonitrile, 0.1% formic acid
MEASURED ATTRIBUTE: RP-LC retention time (s)

Worked cases, answers included:
>  <COMPOUND>
O=C(c1ccccc1)c1ccc[nH]1

>  <VAL>
842

$$$$
>  <COMPOUND>
Cc1ccc(NC(=O)Cn2nc(N3CCCCCC3)c3ccccc3c2=O)c(C)c1

>  <VAL>
1100

$$$$
>  <COMPOUND>
CCOC(=O)c1cc(C)nc2c1c(=O)n(Cc1cccc(C)c1)c(=O)n2C

>  <VAL>
1130

$$$$
>  <COMPOUND>
CCCCCNC(=O)c1ccc(Oc2nccnc2N2CCSCC2)cc1

>  <VAL>
1030

$$$$

P: Cc1cc(NC(=O)CCc2nc(-c3ccc(N4CCCC4)cc3)no2)ccc1Br
Q: CN(CC1CCOC1)C(=O)Nc1ccccc1Cl (stereo unspecified)
Task for the reader: decide whether P or Q has the larger RP-LC retention time. Mark your answer with the label of the selected entry.
P
(P: 1230 s, Q: 722 s)

* * *

assay: gradient 5% acetonitrile 3 min, to 50% in 2 min, to 85% in 15 min, held 3 min, 100 µL/min; conditions: column: Zorbax Extend-C18 2.1 x 50 mm; eluents: water / acetonitrile, 0.1% formic acid
MEASURED ATTRIBUTE: RP-LC retention time (s)

>  <COMPOUND>
CCOC(=O)c1nc(N2CCN(c3ccccc3OC)CC2)c2ccccc2n1

>  <VAL>
809

$$$$
>  <COMPOUND>
COc1cccc(NC(=O)C2CCCN(C(=O)C3Sc4ccccc4NC3=O)C2)c1 (stereo not given)

>  <VAL>
786

$$$$
>  <COMPOUND>
O=c1[nH]c2ccccc2c2ccccc12

>  <VAL>
806

$$$$

P: O=C(CC1CCN(C(=O)NC2CCCC2)CC1)N1CCCCC1
Q: Clc1nnc(NC2CCCCC2)c(Cl)c1Cl
Of P and Q , which shows the smaller RP-LC retention time value? Mark your answer with the label of the selected entry.
P

* * *

experiment: gradient 5% acetonitrile 3 min, to 50% in 2 min, to 85% in 15 min, held 3 min, 100 µL/min; settings: column: Zorbax Extend-C18 2.1 x 50 mm; eluents: water / acetonitrile, 0.1% formic acid
MEASURED ATTRIBUTE: RP-LC retention time (s)

>  <MOLECULE>
CCn1cc(-c2ccncc2)cc1C(=O)NCc1ccc(Br)cc1

>  <UNIT INFO>
s

>  <RP-LC retention time>
698

$$$$
>  <MOLECULE>
O=C(COc1ccc(F)c(F)c1)Nc1cnc(-c2cccnc2)nc1

>  <UNIT INFO>
s

>  <RP-LC retention time>
717

$$$$
>  <MOLECULE>
CC(C)c1nnc2n1CCN(C(=O)CC1CCCCC1)C2

>  <UNIT INFO>
s

>  <RP-LC retention time>
699

$$$$
>  <MOLECULE>
O=C(NCc1ccccn1)C1c2ccccc2C(=O)N(C2CCCC2)C1c1cccs1 (stereo not given)

>  <UNIT INFO>
s

>  <RP-LC retention time>
709

$$$$
>  <MOLECULE>
Cc1nc2c(-c3ccc(F)cc3)c(C)nn2c(C)c1CCC(=O)N1CCN(c2ccccn2)CC1

>  <UNIT INFO>
s

>  <RP-LC retention time>
682

$$$$

* * *

experiment: gradient 5% acetonitrile 3 min, to 50% in 2 min, to 85% in 15 min, held 3 min, 100 µL/min; settings: column: Zorbax Extend-C18 2.1 x 50 mm; eluents: water / acetonitrile, 0.1% formic acid
MEASURED ATTRIBUTE: RP-LC retention time (s)

>  <COMPOUND>
CC(C)NC(=O)C1CCN(S(=O)(=O)c2cc(-c3noc(C4CCC4)n3)cs2)CC1

>  <MEASURED ATTRIBUTE>
RP-LC retention time

>  <UNIT INFO>
s

>  <VAL>
913

$$$$
>  <COMPOUND>
O=C(CCC1CCCN(S(=O)(=O)c2ccccc2)C1)N1CCCCC1 (stereo unspecified)

>  <MEASURED ATTRIBUTE>
RP-LC retention time

>  <UNIT INFO>
s

>  <VAL>
902

$$$$
>  <COMPOUND>
Cc1sc2ccn(CC(C)C)c(=O)c2c1C(=O)NCc1ccco1

>  <MEASURED ATTRIBUTE>
RP-LC retention time

>  <UNIT INFO>
s

>  <VAL>
889

$$$$
>  <COMPOUND>
COCCNCc1ccc(-c2cc(Cl)ccc2Cl)o1

>  <MEASURED ATTRIBUTE>
RP-LC retention time

>  <UNIT INFO>
s

>  <VAL>
684

$$$$
>  <COMPOUND>
CCn1nc(C)c(CCNC(=O)c2ccc3nc(Cc4ccccc4)oc3c2)c1C

>  <MEASURED ATTRIBUTE>
RP-LC retention time

>  <UNIT INFO>
s

>  <VAL>
720

$$$$
>  <COMPOUND>
Cc1ccc(CCNC(=O)C2CCCN(C(=O)c3cc4sccc4n3C)C2)cc1 (stereo unspecified)

>  <MEASURED ATTRIBUTE>
RP-LC retention time

>  <UNIT INFO>
s

>  <VAL>
911

$$$$
>  <COMPOUND>
COc1ccccc1NC(=O)Nc1c(-c2ccc(C)cc2)nc2ccccn12

>  <MEASURED ATTRIBUTE>
RP-LC retention time

>  <UNIT INFO>
s

>  <VAL>
700

$$$$
>  <COMPOUND>
O=C(CSc1ncccn1)NCc1cc(-c2ccc(F)cc2)on1

>  <MEASURED ATTRIBUTE>
RP-LC retention time

>  <UNIT INFO>
s

>  <VAL>
700

$$$$
>  <COMPOUND>
CCS(=O)(=O)c1ccc(-c2ccc(NS(C)(=O)=O)cc2)nn1

>  <MEASURED ATTRIBUTE>
RP-LC retention time

>  <UNIT INFO>
s

>  <VAL>
643

$$$$
>  <COMPOUND>
CCn1c(C)c(CCC(=O)Nc2ccccc2)c(=O)n2nc(-c3ccccc3)nc12

>  <MEASURED ATTRIBUTE>
RP-LC retention time

>  <UNIT INFO>
s

>  <VAL>
847

$$$$

a: CCOc1ccccc1-c1noc(CN2N=NC3C(=O)N(c4ccc(OC)c(OC)c4)C(=O)C32)n1 (stereo unspecified)
b: CN(C)c1cccc(C(=O)NCc2[nH]nc3ccccc23)c1
Task for the reader: decide whether a or b has the larger RP-LC retention time. Mark your answer with the label of the selected entry.
a

a: CCOc1ccc(S(=O)(=O)N2CCC(C(=O)NCc3csc(-c4cccs4)n3)CC2)cc1
b: CC(=O)N1CCN(C(=O)c2cccn2CC(=O)N2CCc3ccccc32)CC1
Task for the reader: decide whether a or b has the larger RP-LC retention time. Mark your answer with the label of the selected entry.
a
(a: 914 s, b: 627 s)
